Quick list: EC50 per entry.
Assay System: EGFR (Human), P00533 [T790M/L858R]
Sequence (P00533 whole entry T790M/L858R, looked up): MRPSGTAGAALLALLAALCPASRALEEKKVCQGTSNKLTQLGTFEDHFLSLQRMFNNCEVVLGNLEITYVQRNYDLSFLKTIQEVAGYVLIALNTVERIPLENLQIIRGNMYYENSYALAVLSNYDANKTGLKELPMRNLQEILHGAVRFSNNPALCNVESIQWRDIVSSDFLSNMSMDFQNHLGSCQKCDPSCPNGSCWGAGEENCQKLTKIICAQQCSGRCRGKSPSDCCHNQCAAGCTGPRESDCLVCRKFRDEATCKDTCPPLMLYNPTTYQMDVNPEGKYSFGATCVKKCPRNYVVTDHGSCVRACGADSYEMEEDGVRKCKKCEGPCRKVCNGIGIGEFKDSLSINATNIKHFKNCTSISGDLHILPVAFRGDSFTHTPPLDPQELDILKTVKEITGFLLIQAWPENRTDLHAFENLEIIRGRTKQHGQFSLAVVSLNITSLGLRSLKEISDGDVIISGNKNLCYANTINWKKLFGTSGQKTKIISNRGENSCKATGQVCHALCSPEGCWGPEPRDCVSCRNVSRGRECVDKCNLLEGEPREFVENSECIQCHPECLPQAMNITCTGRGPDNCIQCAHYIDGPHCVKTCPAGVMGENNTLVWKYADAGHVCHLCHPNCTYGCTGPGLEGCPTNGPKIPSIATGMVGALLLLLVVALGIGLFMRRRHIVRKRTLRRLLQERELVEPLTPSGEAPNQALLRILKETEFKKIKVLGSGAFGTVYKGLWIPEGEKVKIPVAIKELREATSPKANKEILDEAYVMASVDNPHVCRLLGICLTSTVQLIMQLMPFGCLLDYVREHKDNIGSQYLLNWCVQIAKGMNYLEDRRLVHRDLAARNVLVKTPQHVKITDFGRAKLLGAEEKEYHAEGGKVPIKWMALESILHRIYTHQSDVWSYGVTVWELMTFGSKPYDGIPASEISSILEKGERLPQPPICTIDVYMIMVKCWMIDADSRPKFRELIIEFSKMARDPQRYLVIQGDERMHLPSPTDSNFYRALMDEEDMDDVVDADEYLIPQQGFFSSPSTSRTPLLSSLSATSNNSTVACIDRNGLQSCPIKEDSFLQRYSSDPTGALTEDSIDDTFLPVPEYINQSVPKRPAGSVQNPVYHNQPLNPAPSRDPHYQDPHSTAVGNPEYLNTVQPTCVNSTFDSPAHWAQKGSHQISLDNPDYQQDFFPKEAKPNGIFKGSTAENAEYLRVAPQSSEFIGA
Condition Notes: nci-h1975

{"Compound": "CCS(=O)(=O)n1cc(-c2nccc(Nc3cc4c(cn3)c(NC3CCOC3)nn4C(C)C)n2)cn1 (stereo unspecified)", "Recorded Result": "0.272 µM"}
{"Compound": "CCC(C)n1nc(N2CC[C@H](O)C2=O)c2cnc(Nc3ccnc(N4CC[C@@H](O)[C@@H](F)C4)n3)cc21 (stereo partly specified)", "Recorded Result": "> 10 µM"}
{"Compound": "CC1COCC(C)N1c1nn(C(C)C)c2cc(Nc3ccnc(-c4cnn(S(=O)(=O)C5CC5)c4)n3)ncc12 (stereo unspecified)", "Recorded Result": "> 10 µM"}
{"Compound": "CC(C)n1nc(N2CCN(C)C2=O)c2cnc(Nc3ccnc(-c4cnn(S(=O)(=O)C5CC5)c4)n3)cc21", "Recorded Result": "> 10 µM"}
{"Compound": "CC(C)n1nc(N2C[C@H](O)[C@@H](O)C2)c2cnc(Nc3ccnc(N4CCC(C)(O)CC4)n3)cc21", "Recorded Result": "> 10 µM"}

Request: Query EC50 on EGFR (Human), P00533 [T790M/L858R] for CC(C)n1nc(NC2CNC(=O)C2)c2cnc(Nc3ccnc(N4CCC(C)(O)CC4)n3)cc21 (stereo unspecified)
Response: > 10 µM
